Exercise: for every item that follows, state its recorded shrunken log2 fold change.
Test system: Escherichia coli TOP10
Assay: shrunken log2 fold change of peptide-encoding DNA abundance (4.5 h post-induction vs induction); higher = less antimicrobial activity (less host growth inhibition)
Details: time post-induction: 4.5 h; library: site-saturation at positions 5, 18, 19, 20
Give bare numbers.

Solved cases below.
RRIRLRPPRLPRPRPRPVCFPRP -0.059
RRIRTRPPRLPRPRPRPHVHPRP -0.511

Hi team, please reply with shrunken log2 fold change for each item in this list.
1. RRIRCRPPRLPRPRPRPRRVPRP
2. RRIRKRPPRLPRPRPRPMKNPRP
3. RRIRSRPPRLPRPRPRPQVGPRP
4. RRIRMRPPRLPRPRPRPKVKPRP
5. RRIRTRPPRLPRPRPRPHDFPRP
6. RRIRNRPPRLPRPRPRPSFSPRP

[0.342, 0.212, -0.175, 0.614, 0.0369, -0.322]

---

Test system: Escherichia coli TOP10
Test: shrunken log2 fold change of peptide-encoding DNA abundance (4.5 h post-induction vs induction); higher = less antimicrobial activity (less host growth inhibition)
Details: time post-induction: 4.5 h; library: site-saturation at positions 5, 18, 19, 20
measured property: shrunken log2 fold change

Solved cases below.
RRIRLRPPRLPRPRPRPGRMPRP 0.123
RRIRHRPPRLPRPRPRPVRVPRP 0.0942

Hi team, please reply with shrunken log2 fold change for each item in this list.
1. RRIRCRPPRLPRPRPRPQLIPRP
2. RRIRNRPPRLPRPRPRPVLKPRP

[0.229, 0.0485]

Hi team, please reply with shrunken log2 fold change for each item in this list.
1. RRIRNRPPRLPRPRPRPYCKPRP
2. RRIRSRPPRLPRPRPRPLIWPRP
3. RRIRERPPRLPRPRPRPEMPPRP
4. RRIRHRPPRLPRPRPRPPWNPRP

-0.258
0.312
0.112
-0.0664

Hi team, please reply with shrunken log2 fold change for each item in this list.
1. RRIRFRPPRLPRPRPRPTWCPRP
2. RRIRLRPPRLPRPRPRPLCTPRP
3. RRIRERPPRLPRPRPRPAGFPRP
4. RRIRQRPPRLPRPRPRPMGVPRP

1. -0.0549
2. 0.0663
3. 0.67
4. -0.00411

Hi team, please reply with shrunken log2 fold change for each item in this list.
1. RRIRWRPPRLPRPRPRPWCVPRP
2. RRIRWRPPRLPRPRPRPNVSPRP
3. RRIRLRPPRLPRPRPRPWNSPRP

1: -0.032; 2: -0.0556; 3: -0.018

---

Tested on: Escherichia coli TOP10
Experiment: shrunken log2 fold change of peptide-encoding DNA abundance (4.5 h post-induction vs induction); higher = less antimicrobial activity (less host growth inhibition)
Details: time post-induction: 4.5 h; library: site-saturation at positions 5, 18, 19, 20
measured property: shrunken log2 fold change
Give bare numbers.

Hi team, please reply with shrunken log2 fold change for each item in this list.
1. RRIRFRPPRLPRPRPRPTCPPRP
2. RRIRQRPPRLPRPRPRPMYTPRP
3. RRIRPRPPRLPRPRPRPENPPRP
4. RRIRYRPPRLPRPRPRPACAPRP

1: 0.174; 2: -0.639; 3: 0.0677; 4: -0.236

Hi team, please reply with shrunken log2 fold change for each item in this list.
1. RRIRIRPPRLPRPRPRPKKGPRP
2. RRIRARPPRLPRPRPRPPHHPRP
3. RRIRFRPPRLPRPRPRPRCGPRP
4. RRIRVRPPRLPRPRPRPEKHPRP
5. RRIRRRPPRLPRPRPRPLMRPRP
6. RRIRYRPPRLPRPRPRPHSAPRP
7. RRIRDRPPRLPRPRPRPCYDPRP
8. RRIRYRPPRLPRPRPRPGCVPRP

1: -0.252; 2: 0.675; 3: 0.114; 4: -0.0527; 5: 1.07; 6: -0.121; 7: -0.129; 8: -0.202

---

Tested on: Escherichia coli TOP10
Assay: shrunken log2 fold change of peptide-encoding DNA abundance (4.5 h post-induction vs induction); higher = less antimicrobial activity (less host growth inhibition)
Conditions: time post-induction: 4.5 h; library: site-saturation at positions 5, 18, 19, 20
Label scheme for shrunken log2 fold change: lower than 0.02 is not fulfilled, 0.02 and above is fulfilled.

Some solved entries appear below for comparison.
RRIRERPPRLPRPRPRPDCLPRP not fulfilled
RRIRARPPRLPRPRPRPDPVPRP fulfilled
RRIRSRPPRLPRPRPRPRECPRP fulfilled

Identify whether the reported shrunken log2 fold change of the following sequence is 0.02 or greater: RRIRQRPPRLPRPRPRPIVYPRP
not fulfilled

Identify whether the reported shrunken log2 fold change of the following sequence is 0.02 or greater: RRIRIRPPRLPRPRPRPNKRPRP
not fulfilled

Identify whether the reported shrunken log2 fold change of the following sequence is 0.02 or greater: RRIRTRPPRLPRPRPRPKTGPRP
not fulfilled

Identify whether the reported shrunken log2 fold change of the following sequence is 0.02 or greater: RRIRARPPRLPRPRPRPSPCPRP
fulfilled

Identify whether the reported shrunken log2 fold change of the following sequence is 0.02 or greater: RRIRLRPPRLPRPRPRPMDMPRP
not fulfilled

Identify whether the reported shrunken log2 fold change of the following sequence is 0.02 or greater: RRIRNRPPRLPRPRPRPYQGPRP
not fulfilled

Identify whether the reported shrunken log2 fold change of the following sequence is 0.02 or greater: RRIRSRPPRLPRPRPRPTLDPRP
fulfilled

Identify whether the reported shrunken log2 fold change of the following sequence is 0.02 or greater: RRIRVRPPRLPRPRPRPLTCPRP
not fulfilled

Identify whether the reported shrunken log2 fold change of the following sequence is 0.02 or greater: RRIRVRPPRLPRPRPRPEEVPRP
fulfilled

Identify whether the reported shrunken log2 fold change of the following sequence is 0.02 or greater: RRIRIRPPRLPRPRPRPRGQPRP
fulfilled

Identify whether the reported shrunken log2 fold change of the following sequence is 0.02 or greater: RRIRNRPPRLPRPRPRPDCWPRP
not fulfilled

Identify whether the reported shrunken log2 fold change of the following sequence is 0.02 or greater: RRIRIRPPRLPRPRPRPSKDPRP
not fulfilled

---

System: Escherichia coli TOP10
Assay: shrunken log2 fold change of peptide-encoding DNA abundance (4.5 h post-induction vs induction); higher = less antimicrobial activity (less host growth inhibition)
Conditions: time post-induction: 4.5 h; library: site-saturation at positions 5, 18, 19, 20
Label scheme for shrunken log2 fold change: lower than 0.05 is NOT MET, 0.05 and above is MET.

Some solved entries appear below for comparison.
RRIRGRPPRLPRPRPRPSYVPRP MET
RRIRQRPPRLPRPRPRPWKHPRP NOT MET
RRIRTRPPRLPRPRPRPDDTPRP NOT MET

Identify whether the reported shrunken log2 fold change of the following sequence is 0.05 or greater: RRIRPRPPRLPRPRPRPMDEPRP
MET

---

Exercise: for every item that follows, state its recorded shrunken log2 fold change.
Tested on: Escherichia coli TOP10;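 further: peptides expressed intracellularly from a pBAD plasmid library in pooled LB shake-flask culture, induced with 0.3% L-arabinose, DNA abundance read by NGS, three biological replicates, DESeq2 with apeglm shrinkage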
Test: shrunken log2 fold change of peptide-encoding DNA abundance (4.5 h post-induction vs induction); higher = less antimicrobial activity (less host growth inhibition)
Conditions: time post-induction: 4.5 h; library: site-saturation at positions 5, 18, 19, 20

Solved cases below.
RRIRDRPPRLPRPRPRPHHLPRP -0.0476
RRIRFRPPRLPRPRPRPCKKPRP -0.000348
RRIRERPPRLPRPRPRPHDNPRP -0.227
RRIRARPPRLPRPRPRPTLGPRP 0.504
RRIRGRPPRLPRPRPRPKSHPRP 0.536

Hi team, please reply with shrunken log2 fold change for each item in this list.
1. RRIRWRPPRLPRPRPRPGNQPRP
2. RRIRHRPPRLPRPRPRPFNRPRP

1. -0.225
2. 0.00911

Hi team, please reply with shrunken log2 fold change for each item in this list.
1. RRIRSRPPRLPRPRPRPKKMPRP
2. RRIRIRPPRLPRPRPRPHMPPRP
3. RRIRNRPPRLPRPRPRPLMEPRP

1. -0.178
2. -1.11
3. -0.0667

Hi team, please reply with shrunken log2 fold change for each item in this list.
1. RRIRNRPPRLPRPRPRPPRWPRP
2. RRIRDRPPRLPRPRPRPCAMPRP
3. RRIRNRPPRLPRPRPRPSMPPRP
4. RRIRLRPPRLPRPRPRPQHYPRP
5. RRIRNRPPRLPRPRPRPLKFPRP

1: 0.147; 2: 0.259; 3: -0.139; 4: -0.761; 5: -0.212

Hi team, please reply with shrunken log2 fold change for each item in this list.
1. RRIRKRPPRLPRPRPRPANYPRP
2. RRIRFRPPRLPRPRPRPAQMPRP
3. RRIRARPPRLPRPRPRPMGMPRP
4. RRIRIRPPRLPRPRPRPPYHPRP
5. RRIRGRPPRLPRPRPRPDATPRP

1. 0.0421
2. 0.121
3. 0.211
4. -0.652
5. 4.21
